Experiment: Compatibility of nanocrystalline silver with excipients
Format: physicochemical
Details: 10% aqueous solution of excipient, 40° C. overnight
quantity.measured: Reaction with nanocrystalline silver

Q) Fill in reported Reaction with nanocrystalline silver for this entry: CCCCCCCCCCCCCCCCCC(=O)OCC(O)CO (stereo not drawn) [Glycerol monostearate]
A) Brown discoloration

Q) Note Reaction with nanocrystalline silver for the compound shown: COC(=O)c1ccc(O)cc1
A) Brown discoloration

Source: patent US20080014247A1
